Ref: patent US9957264B2

target: JAK1 (recombinant purified GST-tagged catalytic domain) (Homo sapiens (Human), UniProt P23458); experiment: Jak Biochemical HTRF Assay (JAK1); settings: [ATP] 31.8 μM
Sequence (P23458 875-1153): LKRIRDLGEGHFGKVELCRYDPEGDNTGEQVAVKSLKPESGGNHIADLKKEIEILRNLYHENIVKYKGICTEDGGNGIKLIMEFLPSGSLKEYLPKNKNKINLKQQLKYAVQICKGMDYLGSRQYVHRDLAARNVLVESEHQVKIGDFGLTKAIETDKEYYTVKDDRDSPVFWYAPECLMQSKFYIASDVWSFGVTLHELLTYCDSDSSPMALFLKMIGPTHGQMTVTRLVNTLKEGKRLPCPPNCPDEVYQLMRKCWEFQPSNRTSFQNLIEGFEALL
recorded-endpoint: IC50 (nM)

Some entries whose results are on file:
{"compound": "CC(C)(C)OC(=O)[C@@H]1CC[C@@](CC#N)(n2nc(Nc3ccc4nc(N5CCOCC5)ccc4c3)c3c(=O)[nH]ccc32)CO1", "IC50, nM": 0.15}
{"compound": "N#CC[C@]1(n2nc(Nc3ccc4nccc(F)c4c3)c3c(=O)[nH]ccc32)CCOC1 (single isomer, unassigned)", "IC50, nM": 16.8}
{"compound": "Cc1cc(Nc2nn([C@]3(CC#N)CCCOC3)c3cc[nH]c(=O)c23)ccc1C(=O)N1CCC(C)(O)CC1", "IC50, nM": 0.35}
{"compound": "CC(C)(C)OC(=O)N1CCC(CC#N)(n2nc(Nc3ccc4c(c3)CN(C3CCN(CC(F)(F)F)CC3)S4(=O)=O)c3c(=O)[nH]ccc32)CC1", "IC50, nM": 0.77}
{"compound": "CN(C)S(=O)(=O)c1ccc(Nc2nn([C@@]3(CC#N)COCC[C@H]3F)c3cc[nH]c(=O)c23)cc1 (single isomer, unassigned)", "IC50, nM": 0.29}
{"compound": "CN(C)S(=O)(=O)c1ccc(Nc2nn(C3(CC#N)CCN(Cc4ccccc4)CC3)c3cc[nH]c(=O)c23)cc1", "IC50, nM": 0.17}
{"compound": "Cc1cc(Nc2nn([C@]3(CC#N)CC[C@@H](C(=O)OC(C)(C)C)OC3)c3cc[nH]c(=O)c23)ccc1C(=O)N(C)CC(F)(F)F", "IC50, nM": 0.19}
{"compound": "CC(C)(C)OC(=O)N1CCC(CC#N)(n2nc(Nc3ccc([C@H](O)C(F)(F)F)cc3)c3c(=O)[nH]ccc32)CC1 (single isomer, unassigned)", "IC50, nM": 0.21}
{"compound": "C[C@H]1CN(c2ccc3cc(Nc4nn([C@]5(CC#N)CC[C@@H](C(=O)OC(C)(C)C)OC5)c5cc[nH]c(=O)c45)ccc3n2)CCO1", "IC50, nM": 0.25}

P = CC(C)(C)OC(=O)N1CCC(CC#N)(n2nc(Nc3ccc4c(c3)CN(CC3CC3)S4(=O)=O)c3c(=O)[nH]ccc32)CC1
Q = Cc1cc(C)n(-c2ccc(Nc3nn([C@]4(CC#N)CC[C@@H](C(=O)OC(C)(C)C)OC4)c4cc[nH]c(=O)c34)cc2)n1
R = CS(=O)(=O)c1ccc(Nc2nn([C@@]3(CC#N)CCCOC3)c3cc[nH]c(=O)c23)cc1
Arrange these compounds by their IC50, starting with the largest number. Put the labels in the requested order and write them down.
R, P, Q
(R: 12.6 nM, P: 0.25 nM, Q: 0.16 nM)
